system: MDA-MB-231 breast; assay: NCI tumour cell line growth inhibition, 48 h
// values below are reported GI50

Below, 5 molecules whose answers are already recorded.
Cn1cnc([N+](=O)[O-])c1S(=O)(=O)Oc1ccccc1
15.5 µM
COc1cc(CNCCCN2C(=O)c3ccc4c5c(ccc(c35)C2=O)C(=O)N(CCCNCc2cc(OC)c(OC)c(OC)c2)C4=O)cc(OC)c1OC
0.252 µM
CCOc1ccc2nc(S/C(=C/C=C(C#N)C#N)c3ccc(C)cc3)sc2c1
17.8 µM
Cc1ccc(Cl)cc1Nc1nc(C(F)(F)F)ccc1C(=O)N1CCN(c2cccc(Cl)c2)CC1
30.5 µM
C=CC(=O)N1CCC(C2CCNc3c(C(N)=O)c(-c4ccc(Oc5ccccc5)cc4)nn32)CC1 (stereo not drawn)
19.2 µM

Entry Cc1c(CNc2ccc(C(=O)NC(CC(=O)O)C(=O)O)cc2)ccc2nc(N)nc(N)c12 (stereo not drawn) : reported GI50 = ?
> 1000 µM

Need GI50, item Cc1nc2cnc(N)c(C#Cc3cncc(C(=O)Nc4ccc(CN5CCN(C)CC5)c(C(F)(F)F)c4)c3)c2nc1C
0.209 µM

Item COc1ccc2[nH]cc(-c3nc(-c4c[nH]c5ncccc45)cs3)c2c1 has what recorded GI50?
2.21 µM

====

tested on: SK-MEL-28 melanoma; assay: NCI tumour cell line growth inhibition, 48 h
observedProperty: TGI (µM)
Entry rule: numbers only, all in µM.

COc1cccc2c1C(=O)c1c(O)c3c(c(O)c1C2=O)CC(O)(/C(C)=N/NC(=O)CCC(=O)N/N=C(\C)C1(O)Cc2c(O)c4c(c(O)c2C(OC2CC(N)C(O)C(C)O2)C1)C(=O)c1c(OC)cccc1C4=O)CC3OC1CC(N)C(O)C(C)O1 (centres undefined)
1.35
CC[C@]1(Cc2ccc(OC)c(OC)c2)[C@@H]2C[C@@H](C3OCCO3)ON2O[C@H](OC2CCCC2(c2ccccc2)c2ccccc2)[C@@H]1OC(C)=O (some centres undefined)
47.3
O=C(N/N=C1/C(=O)N(c2ccc(Cl)cc2Cl)C(=O)C(=O)C1c1nc2ccccc2o1)c1ccccc1O (centres undefined)
71

Kindly state the measured TGI obtained for Cc1ccc(NC(=S)NNC(=O)c2cc(-c3ccccc3)nc3ccccc23)cc1 with SK-MEL-28 melanoma.
20.1

====

system: SNB-19 CNS; assay: NCI tumour cell line growth inhibition, 48 h
TGI values by entry

CCc1c(OC(C)=O)c2c(NC3OC(COC(C)=O)C(OC(C)=O)C(OC(C)=O)C3OC(C)=O)nc(OC)nc2oc1=O (centres undefined)
> 100 µM
CC1=C2CCCC2=C/C(=N/Nc2ccc([N+](=O)[O-])cc2[N+](=O)[O-])CC1
> 100 µM
O=C1c2ccccc2C2(O)c3cc4ccccc4cc3OC12O (centres undefined)
> 100 µM
Cc1ccc(NC(=O)C2C(=O)N(c3ccc(C)c(C)c3)C(=O)C2N=N)cc1C (centres undefined)
> 100 µM
CC(=O)OC1O[C@@H](C(C)(C)O)CC[C@@H]1[C@H]1CC[C@@]2(C)C3=C(CC[C@]12C)[C@@]1(C)C[C@@H](OC(=O)CC(C)(O)CC(=O)O)[C@H](OC(C)=O)C(C)(C)C1CC3 (some centres undefined)
34.6 µM
COc1ccc(CCN=C2OCc3ccccc32)cc1OC
> 100 µM
CC12CC(C#N)(C#N)C(C#N)(CO1)C(=N)O2 (centres undefined)
> 100 µM
O=c1cc2oc3cc(O)c(O)cc3c(-c3ccccc3O)c-2cc1O
> 100 µM

GET /values?readout=TGI&item= NC12Oc3cc(O)cc(O)c3C1(c1ccc(Cl)cc1)c1c(O)cc(O)cc1O2 (centres undefined)
> 100 µM

I would be grateful if you could share the reported TGI for CC(C)=CCc1c(O)ccc2ccc(=O)oc12 .
> 100 µM

Given O=C(CC(=O)c1ccccc1)CC(O)(c1ccccc1)c1ccccc1 , state its recorded TGI.
35.3 µM

Need TGI of Cc1cn(CCCCCOC(=O)NC(CCCN=C(N)N)C(=O)O)c(=O)[nH]c1=O (centres undefined) , thanks.
> 100 µM

Fill in the blank: the reported TGI of O=C(NS(=O)(=O)OCC(Cl)(Cl)Cl)SCCC(F)(F)C(F)(F)C(F)(F)C(F)(F)C(F)(F)C(F)(F)F is ____.
36.2 µM

Need TGI of COc1ccncc1C#Cc1cncc(C(=O)Nc2ccc(CN3CCN(C)CC3)c(C(F)(F)F)c2)c1 , thanks.
> 100 µM

Query: TGI; subject: CN1C(=O)C(CC=O)(C(C)(C)C)c2ccccc21 (centres undefined)
> 100 µM

So what's the measured TGI for this one? CCCC(O)C(NC(=O)CCl)C(=O)O (centres undefined)
> 100 µM

Dear colleague, I am looking for the recorded TGI of the following compound: COc1ccc(OC)c(N2C(=O)CSC2c2cc(OC)c(OC)c(OC)c2)c1 (centres undefined)
> 100 µM

# query: TGI of entry CC(CCC#N)(CCC#N)C(=O)CC(O)(C(F)(F)F)C(F)(F)F
53 µM

Look up TGI: COc1cc(C2c3cc4c(cc3C(O)C(CO)C2CO)OCO4)cc(OC)c1OC (centres undefined)
> 100 µM

Quick one: TGI for O=c1c2ccccc2sc2cccc(NCCCN3CCN(CCCNc4cccc5sc6ccccc6c(=O)c45)CC3)c12 ?
> 100 µM

Look up TGI: COc1ccc(N2C(=O)CS(=O)(=O)C2c2cccc(Oc3ccccc3)c2)cc1 (centres undefined)
> 100 µM

What value of measured TGI is listed for O=c1[nH]cc(COCCO)c(=O)[nH]1 ?
> 100 µM

For the compound CC1C[C@]2(C)C(=O)Nc3ccccc3[C@@H]2Nc2ccccc21 (some centres undefined) , what TGI is on record?
> 100 µM

Item C[C@@H]1CCC2[C@@H](C)[C@@H](OCCO[C@H]3OC4O[C@@]5(C)CCC6[C@H](C)CCC([C@H]3C)[C@@]46OO5)OC3O[C@@]4(C)CCC1[C@]32OO4 (some centres undefined) has what recorded TGI?
> 100 µM
